System: 648629-189-R-J1-PDC spheroids with HUVEC/MSC, viability;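 also: spheroids exposed to agents for seven days before reading; percent of vehicle control luminescence where 100% = DMSO treated spheroids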
Method description: Anticancer human tumor 648629-189-R-J1-PDC patient-derived bladder carcinoma cell line growth inhibition [PI3K]
Measurement parameters: second compound 0.316 µM; first compound 10 µM; hits give low values
So I've got a bunch of compounds here, and I need their viability, T/C values.
Give bare numbers, in %.

Completed entries (count: 6):
1) CCCS(=O)(=O)Nc1ccc(F)c(C(=O)c2c[nH]c3ncc(-c4ccc(Cl)cc4)cc23)c1F + CC(Nc1ccc2c(c1)OCCn1cc(N3C(=O)OCC3C(F)F)nc1-2)C(N)=O; 0.44
2) C[C@@H](NC(=O)c1ncnc(N)c1Cl)c1ncc(C(=O)Nc2cc(C(F)(F)F)c(Cl)cn2)s1 + Cc1nc(NC(=O)N2CCCC2C(N)=O)sc1-c1ccnc(C(C)(C)C(F)(F)F)c1; 94.5
3) CC1(C)CCC(Nc2ncc(C(F)(F)F)c(-c3c[nH]c4c(P(C)(C)=O)c(C#N)ccc34)n2)CN1 (stereo unspecified) + Cc1nc(NC(=O)N2CCCC2C(N)=O)sc1-c1ccnc(C(C)(C)C(F)(F)F)c1; 4.18
4) CC(C)NCC(C(=O)N1CCN(c2ncnc3c2C(C)CC3O)CC1)c1ccc(Cl)cc1 (stereo unspecified) + CC(Nc1ncnc2nc[nH]c12)c1cc2cccc(Cl)c2c(=O)n1-c1ccccc1; 17.7
5) CC(Cn1ccc(-c2ccc(C#N)c(Cl)c2)n1)NC(=O)c1cc(C(C)O)[nH]n1 (stereo unspecified) + CC(Nc1ccc2c(c1)OCCn1cc(N3C(=O)OCC3C(F)F)nc1-2)C(N)=O; 58.2
6) CC(Cn1ccc(-c2ccc(C#N)c(Cl)c2)n1)NC(=O)c1cc(C(C)O)[nH]n1 (stereo unspecified) + CC(Nc1ncnc2nc[nH]c12)c1cc2cccc(Cl)c2c(=O)n1-c1ccccc1; 87.3

Hi, could you look up viability, T/C for each item in my list?
1. C=CC(=O)N1CCN(c2nc(=O)n(-c3c(C)ccnc3C(C)C)c3nc(-c4c(O)cccc4F)c(F)cc23)C(C)C1 (stereo unspecified) + COc1c(OCCCN2CCOCC2)ccc2c3n(c(=NC(=O)c4cnc(N)nc4)nc12)CCN3
2. CC(C)NCC(C(=O)N1CCN(c2ncnc3c2C(C)CC3O)CC1)c1ccc(Cl)cc1 (stereo unspecified) + CC(Nc1ccc2c(c1)OCCn1cc(N3C(=O)OCC3C(F)F)nc1-2)C(N)=O
3. CC1(C)CCC(Nc2ncc(C(F)(F)F)c(-c3c[nH]c4c(P(C)(C)=O)c(C#N)ccc34)n2)CN1 (stereo unspecified) + CC(Nc1ccc2c(c1)OCCn1cc(N3C(=O)OCC3C(F)F)nc1-2)C(N)=O

Result ::
1. 35.3
2. 14.2
3. 2.95

Each compound below has a recorded value; state its viability, T/C.
1. C#Cc1c(F)ccc2cc(O)cc(-c3ncc4c(N5CC6CCC(C5)N6)nc(OCC56CCCN5CC(F)C6)nc4c3F)c12 (stereo unspecified) + COc1c(OCCCN2CCOCC2)ccc2c3n(c(=NC(=O)c4cnc(N)nc4)nc12)CCN3
2. Cn1nccc1Nc1nccc(-c2ccn(C(CO)c3ccc(Cl)c(F)c3)c(=O)c2)n1 (stereo unspecified) + CC(Nc1ccc2c(c1)OCCn1cc(N3C(=O)OCC3C(F)F)nc1-2)C(N)=O

Result ::
[5.74, 68.8]
